target: mouse TRPV4 (Mus musculus, UniProt Q9EPK8); construct: expressed in transfected cells; host or cells: HEK293 (ATCC CRL-1573; elsewhere called HEK293T), transient, Lipofectamine 2000; experiment: Live-cell Fura-2 Ca2+ imaging in HEK293T cells transiently transfected with mouse TRPV4 (TRPV4-HEK293 cells); format: cell-based; settings: concentration-response curve, TRPV4-HEK293 cells
Sequence (Q9EPK8 whole entry): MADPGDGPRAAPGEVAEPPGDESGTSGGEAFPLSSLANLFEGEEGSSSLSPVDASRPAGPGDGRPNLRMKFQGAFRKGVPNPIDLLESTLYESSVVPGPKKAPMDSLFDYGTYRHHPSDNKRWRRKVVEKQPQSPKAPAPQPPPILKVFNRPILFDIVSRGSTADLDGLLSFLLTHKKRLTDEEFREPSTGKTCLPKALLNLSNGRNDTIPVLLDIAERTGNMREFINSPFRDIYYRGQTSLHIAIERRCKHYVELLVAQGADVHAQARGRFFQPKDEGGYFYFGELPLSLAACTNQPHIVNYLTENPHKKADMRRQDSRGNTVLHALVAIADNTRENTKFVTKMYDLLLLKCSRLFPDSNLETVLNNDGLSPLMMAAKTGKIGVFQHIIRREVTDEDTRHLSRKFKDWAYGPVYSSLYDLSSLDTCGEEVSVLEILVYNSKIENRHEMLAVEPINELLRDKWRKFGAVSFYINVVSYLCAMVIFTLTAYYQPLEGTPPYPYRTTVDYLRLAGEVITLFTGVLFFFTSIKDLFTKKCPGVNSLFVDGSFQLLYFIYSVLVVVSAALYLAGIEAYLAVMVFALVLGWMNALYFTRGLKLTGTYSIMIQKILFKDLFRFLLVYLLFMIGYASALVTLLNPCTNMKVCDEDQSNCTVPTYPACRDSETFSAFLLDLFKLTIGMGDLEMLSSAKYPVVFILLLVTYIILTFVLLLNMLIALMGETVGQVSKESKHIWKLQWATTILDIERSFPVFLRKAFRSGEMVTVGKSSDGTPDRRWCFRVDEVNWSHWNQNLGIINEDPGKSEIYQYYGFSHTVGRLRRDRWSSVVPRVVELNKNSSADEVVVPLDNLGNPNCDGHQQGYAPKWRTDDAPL
quantity-name: Hill coefficient
Form field (numeric): enter value without unit.

Worked examples follow.
CC(C)C[C@H](NC(=O)c1cc2ccccc2s1)C(=O)N1CCN(C(=O)[C@H](CO)NS(=O)(=O)c2ccc(Cl)cc2Cl)CC1 [GSK101, reference compound]    0.9273
CC(C)CC(NC(=O)c1cc2ccccc2s1)C(=O)N1CCN(C(=O)C(CO)NC(=O)c2ccc(Cl)cc2Cl)CC1 (stereo not shown) [LM0024]    0.7036
CC(C)CC(NC(=O)c1cc2ccccc2s1)C(=O)N1CC2COCC(C1)N2C(=O)C(CO)NS(=O)(=O)c1ccc(Cl)cc1Cl (stereo not shown) [GM1009]    0.2998
CC(C)CC(NC(=O)c1cc2ccccc2s1)C(=O)N1CCCN(C(=O)C(CO)NS(=O)(=O)c2ccc(Cl)cc2Cl)CC1 (stereo not shown) [LM0038]    1.0280
CC(C)C[C@H](NC(=O)c1cc2ccccc2s1)C(=O)N1CC2CCC(C1)N2C(=O)C(CO)NS(=O)(=O)c1ccc(Cl)cc1Cl (stereo partly shown) [GM1004]    1.1650

In: Return the recorded Hill coefficient value; entry: CC(C)CC(NC(=O)c1cc2ccccc2s1)C(=O)N1CC2(C1)CN(C(=O)C(CO)NS(=O)(=O)c1ccccc1Cl)C2 (stereo not shown) [LM6146]
Out: 0.3283

In: Return the recorded Hill coefficient value; entry: CC(C)CC(NC(=O)c1cc2ccccc2s1)C(=O)N1CC2(C1)CN(C(=O)C(CO)NS(=O)(=O)c1ccccc1)C2 (stereo not shown) [LM6147]
Out: 1.1150

====

biological target: mouse TRPV4 (Mus musculus); construct: expressed in transfected cells; host or cells: HEK293 (ATCC CRL-1573; elsewhere called HEK293T), transient, Lipofectamine 2000; assay: Live-cell Fura-2 Ca2+ imaging in HEK293T cells transiently transfected with mouse TRPV4 (TRPV4-HEK293 cells); format: cell-based
quantity-name: EC50 (nM)
Number only, in nM; omit the unit.

In: Return the recorded EC50 value; entry: CC(C)C[C@H](NC(=O)c1cc2ccccc2s1)C(=O)N1CCN(C(=O)[C@H](CO)NS(=O)(=O)c2ccc(Cl)cc2Cl)CC1 [GSK101, reference compound]
Out: 13.7

====

target: mouse TRPV4 (Mus musculus, UniProt Q9EPK8); construct: expressed in transfected cells; host or cells: HEK293 (ATCC CRL-1573; elsewhere called HEK293T), transient, Lipofectamine 2000; experiment: Live-cell Fura-2 Ca2+ imaging in HEK293T cells transiently transfected with mouse TRPV4 (TRPV4-HEK293 cells); type: cell-based; details: 30 nM, 2 min, TRPV4-HEK293 cells
quantity-name: Ca2+ influx (F340/F380)

CC(C)CC(NC(=O)c1cc2ccccc2s1)C(=O)N1CC2(C1)CN(C(=O)C(CO)NS(=O)(=O)c1ccc(Cl)cc1)C2 (stereo not shown)    no measurable current
CC(C)CC(NC(=O)c1cc2ccccc2s1)C(=O)N1CC2(C1)CN(C(=O)C(CO)NS(=O)(=O)c1cccc(Cl)c1)C2 (stereo not shown)    no measurable current
CC(C)CC(NC(=O)c1cc2ccccc2s1)C(=O)N1CCN(C(=O)C(CO)NC(=O)c2ccc(Cl)cc2)CC1 (stereo not shown)    no measurable current

====

biological target: mouse TRPV4 (Mus musculus); construct: expressed in transfected cells; host or cells: HEK293 (ATCC CRL-1573; elsewhere called HEK293T), transient, Lipofectamine 2000; assay: Live-cell Fura-2 Ca2+ imaging in HEK293T cells transiently transfected with mouse TRPV4 (TRPV4-HEK293 cells); type: cell-based; settings: dose-response of cell response rate, TRPV4-HEK293 cells; read-out: EC50
pEC50: −log10 of the molar value.
Label satisfied for high-side pEC50 (at or above 5) and not satisfied for low-side pEC50 (below it).

CC(C)CC(NC(=O)c1cc2ccccc2s1)C(=O)N1CC2(C1)CN(C(=O)C(CO)NS(=O)(=O)c1ccccc1)C2 (stereo not drawn) [LM6147]    satisfied

API: the following record is the query input.
In: Does pEC50 meet or surpass 5 for CC(C)CC(NC(=O)c1cc2ccccc2s1)C(=O)N1CC2COCC(C1)N2C(=O)C(CO)NS(=O)(=O)c1ccc(Cl)cc1Cl (stereo not drawn) [GM1009] ?
Out: not satisfied

====

target: mouse TRPV4 (Mus musculus); construct: expressed in transfected cells; host or cells: HEK293 (ATCC CRL-1573; elsewhere called HEK293T), transient, Lipofectamine 2000; experiment: Live-cell Fura-2 Ca2+ imaging in HEK293T cells transiently transfected with mouse TRPV4 (TRPV4-HEK293 cells); assay type: cell-based; settings: dose-response of cell response rate, TRPV4-HEK293 cells; read-out: EC50
# maps each entry to its EC50
Number only, in µM; omit the unit.

Worked examples follow.
CC(C)CC(NC(=O)c1cc2ccccc2s1)C(=O)N1CC2(C1)CN(C(=O)C(CO)NS(=O)(=O)c1ccccc1Cl)C2 (stereo not shown) [LM6146]    78.9
CC(C)CC(NC(=O)c1cc2ccccc2s1)C(=O)N1CCN(C(=O)C(CO)NC(=O)c2ccc(Cl)cc2Cl)CC1 (stereo not shown) [LM0024]    20
CC(C)C[C@H](NC(=O)c1cc2ccccc2s1)C(=O)N1CC2CCC(C1)N2C(=O)C(CO)NS(=O)(=O)c1ccc(Cl)cc1Cl (stereo partly shown) [GM1004]    11.5

Now consider a different molecule.
In: Return the recorded EC50 value; entry: CC(C)CC(NC(=O)c1cc2ccccc2s1)C(=O)N1CCCN(C(=O)C(CO)NS(=O)(=O)c2ccc(Cl)cc2Cl)CC1 (stereo not shown) [LM0038]
Out: 0.168
